# method description: Cmax in Sprague-Dawley rat at 10 mg/kg, iv measured for 24 hrs by LC-MS/MS analysis
# Format: ADME, organism-based
# Set-up: dose 10 mg/kg, time 24 hrs, route iv
# condition set: in vivo
measure: Cmax (ng/mL)
Return type: number; implicit unit ng/mL.

Cmax measured on Cc1ccc(NS(=O)(=O)c2ccc3c(c2)C2OCCC2C(c2ccc(C(=O)C(C)C)cc2)N3)cc1C (stereo unspecified) = 8200

====

# method description: Antiproliferative activity against human SH-EP1 cells assessed as reduction in cell survival incubated for 48 hrs by WST assay
# Assay type: functional, cell-based
# condition set: SH-EP1, 48 h
measure: pIC50
Note on units: pIC50 is unitless, being -log10 of a concentration expressed in mol/L.

// pIC50 lookup, compound = Cc1ccc(NS(=O)(=O)c2ccc3c(c2)C2OCCC2C(c2ccc(C(=O)C(C)C)cc2)N3)cc1C (stereo unspecified) , result: 6.30
